Origin of measurements: BindingDB's records for doi:10.1016/j.bmc.2016.12.017

# ASSAY METHOD TEXT: Inhibition of hepatitis B virus capsid assembly infected in human HepG2.215 cells assessed as reduction in viral DNA replication measured on day 7 by real time PCR analysis
ENDPOINT LABEL: EC50

Use these answered entries as a reference point.
>>> recorded_result("CCOC(=O)C1=C(CN)NC(c2nccs2)=NC1c1ccc(F)cc1Cl (stereo not given)")
"5100 nM"
>>> recorded_result("CC1=C(C(=O)O)C(c2ccc(F)cc2Cl)N=C(c2nccs2)N1 (stereo not given)")
"> 16400 nM"
>>> recorded_result("CCOC(=O)C1=C(CNCCO)NC(c2nccs2)=NC1c1ccc(F)cc1Cl (stereo not given)")
"900 nM"

Okay, here is my list. What is EC50 for each of these?
1. Cc1cn([C@@H]2C[C@@H](O)[C@H](CO)O2)c(=O)[nH]c1=O
2. CCOC(=O)C1=C(CN2CCS(=O)(=O)CC2)NC(c2nccs2)=NC1c1ccc(F)cc1Cl (stereo not given)
3. CC1=C(C(=O)OC(C)C)C(c2ccc(F)cc2Cl)N=C(c2nccs2)N1 (stereo not given)
4. Nc1ncnc2c1ncn2CCOCP(=O)(O)O [9-[2-phosphonomethoxyethyl]adenine]
5. CCOC(=O)C1=C(CN2CCOCC2)NC(c2nccs2)=NC1c1ccc(F)cc1F (stereo not given)
6. CCOC(=O)C1=C(C)NC(c2nccs2)=NC1c1ccc(F)cc1Cl (stereo not given)
7. CNC(=O)C1=C(C)NC(c2nccs2)=NC1c1ccc(F)cc1Cl (stereo not given)

["819 nM", "80 nM", "> 16400 nM", "83 nM", "26 nM", "150 nM", "> 16400 nM"]

* * *

# ASSAY METHOD TEXT: Inhibition of hepatitis B virus capsid assembly infected in human HepG2.215 cells assessed as reduction in viral DNA replication measured on day 7 by real time PCR analysis
ENDPOINT LABEL: EC50 (nM)
Give bare numbers, in nM.

>>> recorded_result("CCOC(=O)C1=C(CN2CCCCC2)NC(c2nccs2)=NC1c1ccc(F)cc1Cl (centres undefined)")
3500
>>> recorded_result("COC(=O)C1=C(C)NC(c2nccs2)=NC1c1ccc(F)cc1Cl (centres undefined)")
250
>>> recorded_result("CCOC(=O)C1=C(COCCOC)NC(c2nccs2)=NC1c1ccc(F)cc1Cl (centres undefined)")
200
>>> recorded_result("C=C1[C@H](CO)[C@@H](O)C[C@@H]1n1cnc2c(=O)[nH]c(N)nc21")
0.24
>>> recorded_result("CCOCC1=C(C(=O)OCC)C(c2ccc(F)cc2Cl)N=C(c2nccs2)N1 (centres undefined)")
800
>>> recorded_result("CCCOCC1=C(C(=O)OCC)C(c2ccc(F)cc2Cl)N=C(c2nccs2)N1 (centres undefined)")
1200

// next entry
Quick one: EC50 of CCOC(=O)C1=C(CN2CCOCC2)NC(c2nccs2)=NC1c1ccccc1F (centres undefined) ?
74

* * *

Please go through the items and note down their pEC50.
# ASSAY METHOD TEXT: Inhibition of hepatitis B virus capsid assembly infected in human HepG2.215 cells assessed as reduction in viral DNA replication measured on day 7 by real time PCR analysis
pEC50: −log10 of the molar value.

// batch mode: one pEC50 value per listed entry
1. CC1=C(C(=O)OC(C)(C)C)C(c2ccc(F)cc2Cl)N=C(c2nccs2)N1 (stereo not given)
2. CCOC(=O)C1=C(CN2CCOCC2)NC(c2nnc(C)s2)=NC1c1ccc(F)cc1Br (stereo not given)
3. CCOC(=O)C1=C(CN2CCOCC2)N(C)C(c2nccs2)=NC1c1ccc(F)cc1Cl (stereo not given)
4. CC1=C(C(N)=O)C(c2ccc(F)cc2Cl)N=C(c2nccs2)N1 (stereo not given)

< 4.79
< 4.79
< 4.79
< 4.79
